Numbers sourced from patent US10202361B2.

Tested on: corn (Zea mays)
Assay details: Test C pre-/postemergence greenhouse herbicide test
Type: in vivo
Details: Zea mays, pre-emergence; Corn; Preemergence; 31 g ai/ha; read-out: Plant response rating
Please assign label 0 whenever plant injury at 31 g/ha is at or above 20%, and label 1 whenever it is below.

{"columns": ["Compound", "Assigned label"],
 "data": [
  ["COc1cc(=O)n(-c2ccc(C(F)(F)F)cc2)nc1Cc1ccnc(C(F)(F)F)c1", "label 0"],
  ["Cc1cc(=O)n(-c2ccc(F)cc2)nc1Oc1ccnc(C(F)(F)F)c1", "label 1"],
  ["CCOc1cc(=O)n(-c2ccc(F)cc2)nc1C(O)c1ccnc(C(F)(F)F)c1 (stereo not shown)", "label 1"],
  ["Cc1cc(=O)n(-c2ccc(C(F)(F)F)cc2)nc1Cc1ccnc(C(F)(F)F)c1", "label 0"],
  ["Cc1cc(=O)n(-c2ccc(F)cc2)nc1Cc1ccnc(C(F)(F)F)c1", "label 1"],
  ["COc1cc(=O)n(-c2ccc(F)cc2)nc1Cc1ccnc(C(F)(F)F)c1", "label 0"],
  ["CCOc1cc(=O)n(-c2ccc(F)cc2)nc1Cc1ccnc(C(F)(F)F)c1", "label 1"]
]}

----------
Test system: velvetleaf (Abutilon theophrasti)
Assay details: Test C pre-/postemergence greenhouse herbicide test
Assay type: in vivo
Details: Abutilon theophrasti, pre-emergence; Velvetleaf; Preemergence; 62 g ai/ha; read-out: Plant response rating
Below is a list of entries, each paired with its recorded pest or weed control at 62 g/ha value.

{"columns": ["Compound", "Target", "pest or weed control at 62 g/ha / %"],
 "data": [
  ["COc1cc(=O)n(-c2ccc(C(F)(F)F)cc2)nc1Cc1ccnc(C(F)(F)F)c1", "velvetleaf (Abutilon theophrasti)", 80],
  ["Cc1cc(=O)n(-c2ccc(C(F)(F)F)cc2)nc1Cc1ccnc(C(F)(F)F)c1", "velvetleaf (Abutilon theophrasti)", 40],
  ["COc1cc(=O)n(-c2ccc(F)cc2)nc1Cc1ccnc(C(F)(F)F)c1", "velvetleaf (Abutilon theophrasti)", 75],
  ["CCOc1cc(=O)n(-c2ccc(F)cc2)nc1Cc1ccnc(C(F)(F)F)c1", "velvetleaf (Abutilon theophrasti)", 100],
  ["CCOc1cc(=O)n(-c2ccc(F)cc2)nc1C(O)c1ccnc(C(F)(F)F)c1 (stereo not shown)", "velvetleaf (Abutilon theophrasti)", 100],
  ["Cc1cc(=O)n(-c2ccc(F)cc2)nc1Cc1ccnc(C(F)(F)F)c1", "velvetleaf (Abutilon theophrasti)", 35],
  ["Cc1cc(=O)n(-c2ccc(F)cc2)nc1Oc1ccnc(C(F)(F)F)c1", "velvetleaf (Abutilon theophrasti)", 10]
]}

----------
Test system: deadnettle (henbit deadnettle, Lamium amplexicaule)
Assay details: Test D pre-/postemergence controlled growth environment herbicide test
Type: in vivo
Details: Postemergence, 62 g ai/ha, scale 0 to 100

{"columns": ["Structure string", "Plant response rating"],
 "data": [
  ["Cc1cc(=O)n(-c2ccc(C(F)(F)F)cc2)nc1Cc1ccnc(C(F)(F)F)c1", 40],
  ["COc1cc(=O)n(-c2ccc(F)cc2)nc1Cc1ccnc(C(F)(F)F)c1", 50],
  ["Cc1cc(=O)n(-c2ccc(F)cc2)nc1Oc1ccnc(C(F)(F)F)c1", 60],
  ["Cc1cc(=O)n(-c2ccc(F)cc2)nc1Cc1ccnc(C(F)(F)F)c1", 25]
]}

----------
Tested on: crabgrass, Large (large crabgrass, Digitaria sanguinalis)
Assay details: Test A pre-/postemergence greenhouse herbicide test
Assay type: in vivo
Details: Digitaria sanguinalis, post-emergence, 240 h; Postemergence, 125 g ai/ha; 0 to 100 scale (0 no effect, 100 complete control), approx. 10 d; read-out: Plant response rating, Crabgrass, Large

{"columns": ["Molecule", "Target", "pest or weed control at 125 g/ha, %"],
 "data": [
  ["CCOc1cc(=O)n(-c2ccc(F)cc2)nc1C(O)c1ccnc(C(F)(F)F)c1 (stereo not drawn)", "crabgrass, Large (large crabgrass, Digitaria sanguinalis)", 60],
  ["Cc1cc(=O)n(-c2ccc(F)cc2)nc1Cn1ccc(C(F)(F)F)n1", "crabgrass, Large (large crabgrass, Digitaria sanguinalis)", 10],
  ["Cc1cc(=O)n(-c2ccc(F)cc2)nc1Oc1ccnc(C(F)(F)F)c1", "crabgrass, Large (large crabgrass, Digitaria sanguinalis)", 90],
  ["Cc1cc(=O)n(-c2ccc(C(F)(F)F)cc2)nc1Cc1ccnc(C(F)(F)F)c1", "crabgrass, Large (large crabgrass, Digitaria sanguinalis)", 80],
  ["CCOc1cc(=O)n(-c2ccc(F)cc2)nc1C(=O)c1ccnc(C(F)(F)F)c1", "crabgrass, Large (large crabgrass, Digitaria sanguinalis)", 60],
  ["COc1cc(=O)n(-c2ccc(C(F)(F)F)cc2)nc1Cc1ccnc(C(F)(F)F)c1", "crabgrass, Large (large crabgrass, Digitaria sanguinalis)", 90]
]}

----------
Test system: crabgrass, Large (large crabgrass, Digitaria sanguinalis)
Assay details: Test A pre-/postemergence greenhouse herbicide test
Assay type: in vivo
Details: Digitaria sanguinalis, post-emergence, 240 h; Postemergence, 125 g ai/ha; 0 to 100 scale (0 no effect, 100 complete control), approx. 10 d; read-out: Plant response rating, Crabgrass, Large
Readout type: pest or weed control at 125 g/ha (%)

{"columns": ["Compound", "Target", "Recorded value"],
 "data": [
  ["Cc1cc(Oc2ccnc(C(F)(F)F)c2)nn(-c2ccc(C(F)(F)F)cc2)c1=O [Compound 6]", "crabgrass, Large (large crabgrass, Digitaria sanguinalis)", 80],
  ["COc1cc(=O)n(-c2ccc(F)cc2)nc1Cc1ccnc(C(F)(F)F)c1 [Compound 17]", "crabgrass, Large (large crabgrass, Digitaria sanguinalis)", 90],
  ["CCOc1cc(=O)n(-c2ccc(F)cc2)nc1Cc1ccnc(C(F)(F)F)c1 [Compound 25]", "crabgrass, Large (large crabgrass, Digitaria sanguinalis)", 80],
  ["Cc1cc(=O)n(-c2ccc(C(F)(F)F)cc2)nc1Oc1ccnc(C(F)(F)F)c1 [Compound 5]", "crabgrass, Large (large crabgrass, Digitaria sanguinalis)", 50],
  ["Cc1cc(=O)n(-c2ccc(F)cc2)nc1Cc1ccnc(C(F)(F)F)c1 [Compound 1]", "crabgrass, Large (large crabgrass, Digitaria sanguinalis)", 90]
]}

----------
Tested on: oilseed rape (Brassica napus)
Assay details: Test C pre-/postemergence greenhouse herbicide test
Assay type: in vivo
Details: Oilseed Rape; Postemergence; 62 g ai/ha
Below is a list of entries, each paired with its recorded Plant response rating value.
Readout type: Plant response rating

{"columns": ["Structure string", "Readout type", "Recorded value"],
 "data": [
  ["Cc1cc(=O)n(-c2ccc(C(F)(F)F)cc2)nc1Cc1ccnc(C(F)(F)F)c1", "Plant response rating", 30],
  ["Cc1cc(Oc2ccnc(C(F)(F)F)c2)nn(-c2ccc(C(F)(F)F)cc2)c1=O", "Plant response rating", 85],
  ["COc1cc(=O)n(-c2ccc(C(F)(F)F)cc2)nc1Cc1ccnc(C(F)(F)F)c1", "Plant response rating", 60],
  ["COc1cc(=O)n(-c2ccc(F)cc2)nc1Cc1ccnc(C(F)(F)F)c1", "Plant response rating", 20],
  ["Cc1cc(=O)n(-c2ccc(F)cc2)nc1Cc1ccnc(C(F)(F)F)c1", "Plant response rating", 5]
]}

----------
Tested on: wheat (Triticum aestivum)
Assay details: Test A pre-/postemergence greenhouse herbicide test
Format: in vivo
Details: Triticum aestivum, post-emergence, 240 h; Postemergence, 125 g ai/ha; 0 to 100 scale (0 no effect, 100 complete control), approx. 10 d; read-out: Plant response rating, Wheat
Please assign f whenever plant injury at 125 g/ha is at or above 40%, and t whenever it is below.

{"columns": ["Molecule", "Assigned label"],
 "data": [
  ["Cc1cc(=O)n(-c2ccc(C(F)(F)F)cc2)nc1Oc1ccnc(C(F)(F)F)c1", "t"],
  ["CCOc1cc(=O)n(-c2ccc(F)cc2)nc1C(O)c1ccnc(C(F)(F)F)c1 (centres unmarked)", "f"],
  ["COc1cc(=O)n(-c2ccc(C(F)(F)F)cc2)nc1Cc1ccnc(C(F)(F)F)c1", "f"],
  ["Cc1cc(=O)n(-c2ccc(F)cc2)nc1Cn1ccc(C(F)(F)F)n1", "t"],
  ["CCOc1cc(=O)n(-c2ccc(F)cc2)nc1C(=O)c1ccnc(C(F)(F)F)c1", "f"],
  ["COc1cc(=O)n(-c2ccc(F)cc2)nc1Cc1ccnc(C(F)(F)F)c1", "f"],
  ["CCOc1cc(=O)n(-c2ccc(F)cc2)nc1Cc1ccnc(C(F)(F)F)c1", "f"],
  ["Cc1cc(=O)n(-c2ccc(F)cc2)nc1Cc1ccnc(C(F)(F)F)c1", "f"]
]}

----------
System: Russian thistle (Salsola kali)
Assay details: Test D pre-/postemergence controlled growth environment herbicide test
Assay type: in vivo
Details: Preemergence, 125 g ai/ha, scale 0 to 100

{"columns": ["Molecule", "Plant response rating"],
 "data": [
  ["COc1cc(=O)n(-c2ccc(F)cc2)nc1Cc1ccnc(C(F)(F)F)c1 [Compound 17]", 100],
  ["Cc1cc(=O)n(-c2ccc(F)cc2)nc1Oc1ccnc(C(F)(F)F)c1 [Compound 14]", 50],
  ["Cc1cc(=O)n(-c2ccc(F)cc2)nc1Cc1ccnc(C(F)(F)F)c1 [Compound 1]", 100],
  ["Cc1cc(=O)n(-c2ccc(C(F)(F)F)cc2)nc1Cc1ccnc(C(F)(F)F)c1 [Compound 2]", 100]
]}
